The measured values listed here are drawn from the CATMoS acute toxicity set (Mansouri et al. 2021).

Entries and their LD50
assay_name: rat acute oral toxicity
condition_summary: in vivo
Express it in mg/kg; write the number only.

Assign LD50 to the following record: N#Cc1nn(-c2c(Cl)cc(C(F)(F)F)cc2Cl)c(N)c1S(=O)C(F)(F)F (stereo not drawn)
92

---

assay_name: rat acute oral toxicity
condition_summary: in vivo
assay_metric: log10 LD50 (log10 of the value in mg/kg)
Hi team, quick reminder: these entries are log10 of LD50 (mg/kg).

[
  {
    "compound": "O=c1oc2ccccc2c(O)c1C1CC(c2ccc(OCc3ccc(C(F)(F)F)cc3)cc2)Cc2ccccc21 (stereo not given)",
    "assay_metric": "log10 LD50",
    "value_measured": -0.60
  },
  {
    "compound": "C#CCO",
    "assay_metric": "log10 LD50",
    "value_measured": 1.30
  },
  {
    "compound": "Cc1ccc(N)cc1N",
    "assay_metric": "log10 LD50",
    "value_measured": 1.86
  },
  {
    "compound": "CCOCCOCCOCC",
    "assay_metric": "log10 LD50",
    "value_measured": 3.70
  },
  {
    "compound": "CCCCN(C)C",
    "assay_metric": "log10 LD50",
    "value_measured": 2.26
  },
  {
    "compound": "CC1=CC(=O)NS(=O)(=O)O1",
    "assay_metric": "log10 LD50",
    "value_measured": 3.74
  },
  {
    "compound": "CCOP(=S)(OCC)Oc1cc(C)nc(C(C)C)n1",
    "assay_metric": "log10 LD50",
    "value_measured": 1.96
  },
  {
    "compound": "Nc1ccc(Nc2ccccc2)cc1",
    "assay_metric": "log10 LD50",
    "value_measured": 2.67
  },
  {
    "compound": "CC(C)COC(=O)c1ccccc1C(=O)OCC(C)C",
    "assay_metric": "log10 LD50",
    "value_measured": 4.02
  }
]

Next item in the queue.
Give the value of log10 LD50 reported for the following: `NCCNCCN`
3.03
